# assay: Apparent permeability of the compound at 200 uM incubated for 5 hrs by PAMPA assay
# Format: ADME
measure-name: Papp at 5 h, 200 µM (×10⁻⁶ cm/s)
// return numeric value only (unit: ×10⁻⁶ cm/s, not printed)

Worked cases, Papp at 5 h, 200 µM given:
>  <structure-notation>
CCCCc1nc2c(N)nc3ccccc3c2n1Cc1ccc(NC(=O)OCC)cc1

>  <experimental-result>
8.78

$$$$
>  <structure-notation>
CCCCc1nc2c(N)nc3ccccc3c2n1Cc1ccc(O)cc1

>  <experimental-result>
3.06

$$$$
>  <structure-notation>
CCCCc1nc2c(N)nc3ccccc3c2n1Cc1ccc(NC(=O)CCNC(=O)OC(C)(C)C)cc1

>  <experimental-result>
0.434

$$$$
>  <structure-notation>
CCCCC(=O)Nc1ccc(Cn2c(CCCC)nc3c(N)nc4ccccc4c32)cc1

>  <experimental-result>
1.59

$$$$
>  <structure-notation>
CCCCc1nc2c(N)nc3ccccc3c2n1Cc1cccc(N)c1

>  <experimental-result>
5.26

$$$$

Reported Papp at 5 h, 200 µM for CCCCc1nc2c(N)nc3ccccc3c2n1Cc1ccc(NC(=O)CCN)cc1 was 0.131

Reported Papp at 5 h, 200 µM for CCCCOC(=O)Cc1ccc(Cn2c(CCCC)nc3c(N)nc4ccccc4c32)cc1 was 14.2

Attribution: ChEMBL document CHEMBL5365545
